Where these numbers come from: paper doi:10.1101/338061

molecular target: MBD2 MBD (Homo sapiens, UniProt Q9UBB5 143-220); test: ITC
Sequence (Q9UBB5 143-220): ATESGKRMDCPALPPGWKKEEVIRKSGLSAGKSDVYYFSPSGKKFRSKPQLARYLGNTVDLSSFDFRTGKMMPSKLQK
quantityMeasured: pKd
API: returns pKd as number; meaning -log10 of concentration in mol/L.

Reported pKd for mCG/TG (dsDNA, 5mC at position 6 of strand 1) DNA 1: GTCAACGTTACG DNA 2: CGTAATGTTGAC was 5.80

Reported pKd for AmCGT (mCG) (dsDNA, 5mC at position 6 of both strands) DNA 1: GCCAACGTTGGC DNA 2: GCCAACGTTGGC was 6.05

Reported pKd for hmCG (dsDNA, 5hmC at position 6 of both strands) DNA 1: GCCAGCGCTGGC DNA 2: GCCAGCGCTGGC was 5.01
